Every entry's value here was drawn from paper PMC7587356.

# key: entry, value: inhibition at 5 µM
target: SARS-CoV-2 3CLpro (Severe acute respiratory syndrome coronavirus 2); assay: biochemical; format: biochemical; conditions: 4 h, sheet LOPAC_screen_w_protease; LOPAC1280 primary screen with protease, 5 µM compound; replicate 2; read-out: Replicate_2
The answer consists of two parts: a number and, after it, its unit.

- COMPOUND: "C[C@@H]1C(=O)NC2=Nc3cccc(Cl)c3CN21"
  inhibition at 5 µM: "4%"
- COMPOUND: "O=C1N(c2ccccc2)c2ccccc2C1(Cc1ccncc1)Cc1ccncc1"
  inhibition at 5 µM: "5.29%"

query: Value lookup for inhibition at 5 µM; key = CCN(CC)CC#CCOC(=O)C(O)(c1ccccc1)C1CCCCC1 (stereo not drawn) [Oxybutynin Chloride]
result: 4.65%

---

# key: entry, value: mean (LOPAC_screen_w_protease)
molecular target: SARS-CoV-2 3CLpro (Severe acute respiratory syndrome coronavirus 2, UniProt P0DTD1); assay: biochemical; type: biochemical
Counter-ions that a name gives are not always drawn.
I'd appreciate a reply containing only the number, no unit.

Solved entries:
- MOLECULE: "O=C(O)Cc1ccccc1Nc1c(Cl)cccc1Cl [Diclofenac sodium]"
  mean (LOPAC_screen_w_protease): 1.426
- MOLECULE: "C#CCN[C@H](C)Cc1ccccc1.Cl [R-(-)-Desmethyldeprenyl hydrochloride]"
  mean (LOPAC_screen_w_protease): 1.9771
- MOLECULE: "C[C@H](Cc1ccc2c(c1)OC(C(=O)[O-])(C(=O)[O-])O2)NC[C@H](O)c1cccc(Cl)c1.[Na+].[Na+] [CL 316,243]"
  mean (LOPAC_screen_w_protease): 1.749

query: Value lookup for mean (LOPAC_screen_w_protease); key = NC(=O)N1c2ccccc2C=Cc2ccccc21 [Carbamazepine]
result: 1.395

query: Next entry: Cn1cnc([N+](=O)[O-])c1Sc1ncnc2nc[nH]c12 [Azathioprine]
result: 1.638

query: Next entry: C=C(C)[C@H]1CN[C@H](C(=O)O)[C@H]1CC(=O)O [Kainic acid]
result: 1.974

query: Next entry: CNCCCN1c2ccccc2CCc2ccccc21 [Desipramine hydrochloride]
result: 1.646

query: Next entry: CN1CCCC1c1cccnc1.Cc1ccc(C(=O)OC(C(=O)O)C(OC(=O)c2ccc(C)cc2)C(=O)O)cc1 (stereo not drawn) [(+)-Nicotine (+)-di-p-toluoyl tartrate]
result: 1.698

---

target: SARS-CoV-2 3CLpro (Severe acute respiratory syndrome coronavirus 2, UniProt P0DTD1); assay: biochemical; format: biochemical; parameters: unit not given here; settings: sheet LOPAC_screen_w_protease; LOPAC1280 primary screen with protease, 5 µM compound; replicate 1
READOUT: Replicate_1
I'd appreciate a reply containing only the number, no unit.

Solved entries:
- COMPOUND: "C[C@@H]1O[C@H](C[N+](C)(C)C)C[C@H]1O.[Cl-] (racemic) [(±)-Muscarine chloride]"
  Replicate_1: 6.646
- COMPOUND: "CSc1nc(N)c2ncn([C@@H]3O[C@H](COP(=O)(O)OP(=O)(O)O)[C@@H](O)[C@H]3O)c2n1.[Na].[Na].[Na]"
  Replicate_1: 4.609
- COMPOUND: "O=[N+]([O-])c1ccc(CSc2ncnc3c2ncn3[C@@H]2O[C@H](CO)[C@@H](O)[C@H]2O)cc1"
  Replicate_1: 5.452
- COMPOUND: "CN1CCN(C2Cc3ccccc3Sc3ccc(Cl)cc32)CC1.O=C(O)/C=C\\C(=O)O (racemic) [(±)-Octoclothepin maleate]"
  Replicate_1: 3.609
- COMPOUND: "Cn1c(=O)c2[nH]c(-c3ccccc3)nc2n(C)c1=O"
  Replicate_1: 5.626
- COMPOUND: "C[C@]12CC[C@@H](O)C[C@@H]1CC[C@@H]1[C@@H]2CC[C@]2(C)[C@@H](C(=O)CO)CC[C@@H]12"
  Replicate_1: 2.641
- COMPOUND: "COc1ccc2c(c1O)-c1cccc3c1[C@@H](C2)N(C)CC3.Cl [R(-)-Apocodeine hydrochloride]"
  Replicate_1: 6.597

Field: next compound
query: Value lookup for Replicate_1; key = Cc1nc(N=Nc2cc(S(=O)(=O)[O-])c3cc([N+](=O)[O-])cc(S(=O)(=O)[O-])c3c2)c(COP(=O)([O-])[O-])c(C=O)c1O.[Na+].[Na+].[Na+].[Na+] [PPNDS tetrasodium]
result: 4.956

---

# key: entry, value: inhibition at 5 µM
biological target: UniProtKB P0DTD1; assay: biochemical; type: biochemical; settings: 4 h, sheet LOPAC_screen_w_protease; primary screen of LOPAC1280 at 5 µM with protease; replicate 2; read-out: Replicate_2
Structures can show the parent of a compound that is named as a salt.
The answer consists of two parts: a number and, after it, its unit.

- COMPOUND: "CC(C)N(CCC(C(N)=O)(c1ccccc1)c1ccccn1)C(C)C (stereo not drawn) [Disopyramide]"
  READOUT: "inhibition at 5 µM"
  OBSERVED VALUE: "2.4%"
- COMPOUND: "CCn1c(=O)c2nc(-c3ccccc3)[nH]c2n(CC)c1=O [1,3-Diethyl-8-phenylxanthine]"
  READOUT: "inhibition at 5 µM"
  OBSERVED VALUE: "3.9%"
- COMPOUND: "C=C1C(=O)O[C@H]2[C@H]1CC/C(C)=C/CC[C@@]1(C)O[C@@H]21 [Parthenolide]"
  READOUT: "inhibition at 5 µM"
  OBSERVED VALUE: "2.86%"
- COMPOUND: "CCn1cc(C(=O)O)c(=O)c2ccc(Cc3ccccc3)nc21 [Amfonelic acid]"
  READOUT: "inhibition at 5 µM"
  OBSERVED VALUE: "1.47%"
- COMPOUND: "O=C(O)CC[N+](=O)[O-] [3-Nitropropionic acid]"
  READOUT: "inhibition at 5 µM"
  OBSERVED VALUE: "4.28%"

query: Value lookup for inhibition at 5 µM; key = O=C(CCNNC(=O)c1ccncc1)NCc1ccccc1 [Nialamide]
result: 2.12%

query: Next entry: CN1C[C@H](CNC(=O)OCc2ccccc2)C[C@@H]2c3cccc4c3c(cn4C)C[C@H]21 [Metergoline]
result: 5.6%

query: Next entry: CC(CCc1ccccc1)NC(C)C(O)c1ccc(O)cc1 (stereo not drawn) [Nylidrin hydrochloride]
result: 2.65%

query: Next entry: N=C(NCCC[C@H](N)C(=O)O)N[N+](=O)[O-] [NG-Nitro-L-arginine]
result: 5.04%

query: Next entry: CN1CCC(=C2c3ccccc3CC(=O)c3sccc32)CC1 [Ketotifen fumarate]
result: 1.34%

query: Next entry: CC(=O)OCC1=C(C(=O)O)N2C(=O)[C@@H](NC(=O)CSc3ccncc3)[C@H]2SC1 [Cephapirin sodium]
result: 4.79%

query: Next entry: CNC(=O)Oc1ccc2c(c1)[C@]1(C)CCN(C)[C@@H]1N2C [(-)-Physostigmine]
result: 1.4%

---

target: SARS-CoV-2 3CLpro (Severe acute respiratory syndrome coronavirus 2, UniProt P0DTD1); experiment: biochemical; type: biochemical; parameters: unit not given here; settings: sheet LOPAC_screen_w_protease; primary screen with protease, 5 µM; mean of two replicates
READOUT: mean
I'd appreciate a reply containing only the number, no unit.

Solved entries:
- COMPOUND: "Cl.O=c1[nH]oc2c1CCNC2 [THIP hydrochloride]"
  mean: -0.005768
- COMPOUND: "Cl.NCCNC(=O)c1ncsc1-c1cccc(F)c1 [Ro 41-1049 hydrochloride]"
  mean: -0.1611
- COMPOUND: "COc1cc(CC(=O)O)ccc1O [4-Hydroxy-3-methoxyphenylacetic acid]"
  mean: 0.06748
- COMPOUND: "CC(C)Oc1cccnc1N(C)C1CCN(Cc2ccccc2)CC1.O=C(O)/C=C\\C(=O)O [U-101958 maleate]"
  mean: 0.02682

query: Identify the measured mean of CCCCC/C=C\C/C=C\C/C=C\C/C=C\CCCC(=O)NCC(=O)O for SARS-CoV-2 3CLpro (Severe acute respiratory syndrome coronavirus 2, UniProt P0DTD1).
result: 0.3785

query: Next entry: C[C@]12C=CC(=O)C=C1CC[C@@H]1C2=CC[C@]2(C)[C@@H](C(=O)CN3CCN(c4cc(N5CCCC5)nc(N5CCCC5)n4)CC3)CC[C@@H]12.O=C(O)/C=C\C(=O)O [U-74389G maleate]
result: -0.1973

---

# key: entry, value: Replicate_2
biological target: SARS-CoV-2 3CLpro (Severe acute respiratory syndrome coronavirus 2, UniProt P0DTD1); assay: biochemical; format: biochemical; design: unit not given here; details: sheet LOPAC_screen_w_protease; LOPAC1280 primary screen with protease, 5 µM compound; replicate 2
I'd appreciate a reply containing only the number, no unit.

- COMPOUND: "C[C@@H]1O[C@H](C[N+](C)(C)C)C[C@H]1O.[Cl-] (racemic) [(±)-Muscarine chloride]"
  ASSAY SYSTEM: "SARS-CoV-2 3CLpro (Severe acute respiratory syndrome coronavirus 2, UniProt P0DTD1)"
  Replicate_2: 3.361
- COMPOUND: "Cc1[nH]c2ccc(O)cc2c1CCN.O=C(O)/C=C\\C(=O)O [2-Methyl-5-hydroxytryptamine maleate]"
  ASSAY SYSTEM: "SARS-CoV-2 3CLpro (Severe acute respiratory syndrome coronavirus 2, UniProt P0DTD1)"
  Replicate_2: 5.62
- COMPOUND: "N[C@@H](Cc1ccc(O)c(O)c1)C(=O)O [L-3,4-Dihydroxyphenylalanine]"
  ASSAY SYSTEM: "SARS-CoV-2 3CLpro (Severe acute respiratory syndrome coronavirus 2, UniProt P0DTD1)"
  Replicate_2: 2.742
- COMPOUND: "O=[N+]([O-])c1ccc(CSc2ncnc3c2ncn3[C@@H]2O[C@H](CO)[C@@H](O)[C@H]2O)cc1"
  ASSAY SYSTEM: "SARS-CoV-2 3CLpro (Severe acute respiratory syndrome coronavirus 2, UniProt P0DTD1)"
  Replicate_2: 4.228
- COMPOUND: "O=C1Nc2ccc(I)cc2/C1=C/c1cc(Br)c(O)c(Br)c1"
  ASSAY SYSTEM: "SARS-CoV-2 3CLpro (Severe acute respiratory syndrome coronavirus 2, UniProt P0DTD1)"
  Replicate_2: 5.112
- COMPOUND: "N[C@@H](COP(=O)(O)O)C(=O)O"
  ASSAY SYSTEM: "SARS-CoV-2 3CLpro (Severe acute respiratory syndrome coronavirus 2, UniProt P0DTD1)"
  Replicate_2: 7.365
- COMPOUND: "CCCCCCN(CCCCCC)C(=O)Cc1c(-c2ccc(F)cc2)[nH]c2ccccc12"
  ASSAY SYSTEM: "SARS-CoV-2 3CLpro (Severe acute respiratory syndrome coronavirus 2, UniProt P0DTD1)"
  Replicate_2: 3.32
- COMPOUND: "COc1ccc2c(c1O)-c1cccc3c1[C@@H](C2)N(C)CC3.Cl [R(-)-Apocodeine hydrochloride]"
  ASSAY SYSTEM: "SARS-CoV-2 3CLpro (Severe acute respiratory syndrome coronavirus 2, UniProt P0DTD1)"
  Replicate_2: 5.52

query: Value lookup for Replicate_2; key = CCn1cc(C(=O)[O-])c(=O)c2ccc(C)nc21.[Na+] [Nalidixic acid sodium]
result: 5.113
